assay: chemical genetic growth profiling, strain panel (AID 1159580);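 note: tested at 20 µM; growth read once vehicle control cultures reached saturation at 30 °C; lower values mean less growth of the strain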; details: S. cerevisiae deletion strains, growth OD, locus YCL029C, strain bik1, hits give low values
About 2,000 (36%) of roughly 5,500 compounds were called active. Not shown: some 18% with an inconclusive outcome. The list shows a part of the results.
With a cut-off of 1, any normalized growth strictly below it is called Yes; any normalized growth meeting it or above is called No.

molecule | assigned class
CCCCCC(O)C1C(=O)OC(C)C(O)/C=C/C=C/C=C/C=C/C=C(\C)C(O)CC(O)CC(O)CC(O)CC(O)CC(O)CC1O (stereo unspecified) | No

Does the reported normalized growth of O=C(O)CN(CCN(CC(=O)O)CC(=O)O)CC(=O)O stay below 1?
Yes
